- Type: physicochemical
- experimental parameters: 50 mM agent, 10 mM TRIS, pH 7.4, autoclaved then UV 18 h, agent:SBE7-β-CD 1:0.1
readout kind: Iodide formed (wt %)
Report only the number, with the unit wt % understood.

Some entries whose results are on file:
O=C(NCC(O)CO)c1c(I)c(C(=O)NCC(O)CO)c(I)c(N(CCO)C(=O)CO)c1I (centres unmarked) [Ioversol, ioversol] = 0.545
C[C@H](O)C(=O)Nc1c(I)c(C(=O)NC(CO)CO)c(I)c(C(=O)NC(CO)CO)c1I [Iopamidol, iopamidol] = 0.470
COCC(=O)Nc1c(I)c(C(=O)NCC(O)CO)c(I)c(C(=O)N(C)CC(O)CO)c1I (centres unmarked) [Iopromide, iopromide] = 0.330
CNC(=O)c1c(I)c(C(=O)NCC(=O)Nc2c(I)c(C(=O)O)c(I)c(C(=O)NCCO)c2I)c(I)c(N(C)C(C)=O)c1I [Ioxaglate, ioxaglate] = 0.332

Now take the following compound into account.
Query: Request the reported Iodide formed associated with CC(=O)N(CC(O)CN(C(C)=O)c1c(I)c(C(=O)NCC(O)CO)c(I)c(C(=O)NCC(O)CO)c1I)c1c(I)c(C(=O)NCC(O)CO)c(I)c(C(=O)NCC(O)CO)c1I (centres unmarked) [Iodixanol, iodixanol]
Reply: 0.220

====

- test summary: Photostability: iodide formed after visible light irradiation
- Type: physicochemical
- experimental parameters: 50 mM agent, 10 mM TRIS, pH 7.4, VIS 72 h, no SCD (1:0)
readout kind: Iodide formed
Don't forget the unit after the number, please.

Query: Fill in: Iodide formed of CNC(=O)c1c(I)c(C(=O)NCC(=O)Nc2c(I)c(C(=O)O)c(I)c(C(=O)NCCO)c2I)c(I)c(N(C)C(C)=O)c1I [Ioxaglate, ioxaglate] is ___
Reply: 0.231 wt %

Query: Quick check: Iodide formed of C[C@H](O)C(=O)Nc1c(I)c(C(=O)NC(CO)CO)c(I)c(C(=O)NC(CO)CO)c1I ?
Reply: 0.356 wt %

====

- Format: physicochemical
- experimental parameters: 50 mM agent, 10 mM TRIS, pH 7.4, autoclaved then UV 18 h, no SCD (1:0)
- Method: The lamps were switched on and the solutions irradiated for 18 to 24 hours for the ultraviolet (UV) lamps or 72 to 90 hours for the visible (VIS) light lamps. At the end of the selected irradiation time, the cuvettes were removed from the photolysis chamber and mixed by inversion 2-times. […] The thiosulfate solution converted any I2, IO3^−, and I3^− present in the solution tor such that total iodine species could be determined in one assay. […]
Binary call on Iodide formed with cut-off 0.5 wt %: strictly below means T, and equality or higher means F.

CC(=O)N(CC(O)CN(C(C)=O)c1c(I)c(C(=O)NCC(O)CO)c(I)c(C(=O)NCC(O)CO)c1I)c1c(I)c(C(=O)NCC(O)CO)c(I)c(C(=O)NCC(O)CO)c1I (centres unmarked) = T

Query: API: query returns whether the compound falls strictly under 0.5 wt % in Iodide formed. Query: C[C@H](O)C(=O)Nc1c(I)c(C(=O)NC(CO)CO)c(I)c(C(=O)NC(CO)CO)c1I
Reply: F

Query: Does this compound meet the criterion Iodide formed < 0.5 wt %? CNC(=O)c1c(I)c(C(=O)NCC(=O)Nc2c(I)c(C(=O)O)c(I)c(C(=O)NCCO)c2I)c(I)c(N(C)C(C)=O)c1I [Ioxaglate, ioxaglate]
Reply: T

Query: Is 0.5 wt % strictly greater than the compound's reported Iodide formed? compound: O=C(NCC(O)CO)c1c(I)c(C(=O)NCC(O)CO)c(I)c(N(CCO)C(=O)CO)c1I (centres unmarked)
Reply: F

====

- test summary: Photostability: iodide formed after visible light irradiation
- Format: physicochemical
- experimental parameters: 50 mM agent, 10 mM TRIS, pH 7.4, VIS 72 h, no SCD (1:0)
readout kind: Iodide formed
Note: state the figure and append the unit.

In the examples that follow, each entry is paired with its recorded Iodide formed.
COCC(=O)Nc1c(I)c(C(=O)NCC(O)CO)c(I)c(C(=O)N(C)CC(O)CO)c1I (stereo not drawn) [Iopromide, iopromide] = 0.311 wt %
CC(=O)N(CC(O)CN(C(C)=O)c1c(I)c(C(=O)NCC(O)CO)c(I)c(C(=O)NCC(O)CO)c1I)c1c(I)c(C(=O)NCC(O)CO)c(I)c(C(=O)NCC(O)CO)c1I (stereo not drawn) [Iodixanol, iodixanol] = 0.153 wt %

Turning now to a further record.
Query: Return reported Iodide formed; argument: O=C(NCC(O)CO)c1c(I)c(C(=O)NCC(O)CO)c(I)c(N(CCO)C(=O)CO)c1I (stereo not drawn) [Ioversol, ioversol]
Reply: 0.304 wt %
